- testTarget: α5β3γ2 benzodiazepine receptor GABA(A) isoform (UniProt P18507+P31644)
- assayMethodText: Radioligand competition binding, α5β3γ2 BzR/GABA(A) isoform
- Design: Ki α5; means of two determinations; Ki α5; α5; other: text; species or system human and rat
- statedConditions: Table 2; means of two determinations; read-out: Ki α5
pKi: −log10 of the molar value.

smi	pKi
C#Cc1ccc2c(c1)C(=O)N1CC[C@@H]1c1c(-c3nc(C)no3)ncn1-2	6.80
CCOC(=O)c1ncoc1-c1ncn2c1[C@@H]1CCN1C(=O)c1cc(Br)ccc1-2	6.76

====

- testTarget: α5β3γ2 benzodiazepine receptor GABA(A) isoform (UniProt P18507+P31644)
- assayMethodText: Radioligand competition binding, α5β3γ2 BzR/GABA(A) isoform
- Design: Ki α5; means of two determinations; Ki α5; α5; other: text; species or system human and rat
- statedConditions: read-out: Ki α5; Table 2; means of two determinations
pKi: −log10 of the molar value.

smi	pKi
C#Cc1ccc2c(c1)C(=O)N1CC[C@H]1c1c(-c3ocnc3C(=O)OCC)ncn1-2	7.72
CCOC(=O)c1ncoc1-c1ncn2c1[C@@H]1CCN1C(=O)c1cc(C#C[Si](C)(C)C)ccc1-2	7.43
CCc1ccc2c(c1)C(=O)N(C)Cc1c(C(=O)OCCCOC(=O)c3ncn4c3CN(C)C(=O)c3cc(CC)ccc3-4)ncn1-2	6.97
